assay.explanation: Oral bioavailability in Sprague-Dawley rat at 2 mg/kg by LC-MS/MS analysis
Format: ADME, organism-based
stated.conditions: in vivo

smi	bioavailability
CS(=O)(=O)c1ccc(-c2cnc(NCc3ccco3)n3cnnc23)cc1	60%

* * *

assay.explanation: Protein binding in Sprague-Dawley rat plasma assessed as unbound fraction
Assay type: ADME, cell-free

smi	fraction unbound
CS(=O)(=O)c1ccc(-c2cnc(NCc3ccco3)n3cnnc23)cc1	0.08

* * *

Items are presented alongside their recorded AUC/dose.
System: Mus musculus
assay.explanation: Dose normalized AUC in CD-1 mouse at 2 mg/kg, po by LC-MS/MS analysis
Format: ADME, organism-based
stated.conditions: in vivo

smi	test.system	AUC/dose, nM·h
N#Cc1cc(-c2ccccc2F)c2nncn2c1NCc1ccco1	Mus musculus	714
CS(=O)(=O)c1ccc(-c2cnc(NCc3ccco3)n3cnnc23)cc1	Mus musculus	5648
CCN(c1cc(-c2ccc(CN3CCOCC3)cc2)cc(C(=O)NCc2c(C)cc(C)[nH]c2=O)c1C)C1CCOCC1	Mus musculus	254
c1coc(CNc2ncc(-c3ccc(CN4CCCC4)cc3)c3nncn23)c1	Mus musculus	531

* * *

assay.explanation: Oral bioavailability in CD-1 mouse at 2 mg/kg by LC-MS/MS analysis
Type: ADME, organism-based
stated.conditions: CD-1, mouse, in vivo

molecule	readout.unit	bioavailability
c1coc(CNc2ncc(-c3ccc(CN4CCCC4)cc3)c3nncn23)c1	%	71
N#Cc1cc(-c2ccccc2F)c2nncn2c1NCc1ccco1	%	42
CCN(c1cc(-c2ccc(CN3CCOCC3)cc2)cc(C(=O)NCc2c(C)cc(C)[nH]c2=O)c1C)C1CCOCC1 [TAZEMETOSTAT]	%	20

* * *

assay.explanation: Protein binding in mouse plasma assessed as unbound fraction
Type: ADME, cell-free
Items are presented alongside their recorded fraction unbound.

molecule	fraction unbound
CCN(c1cc(-c2ccc(CN3CCOCC3)cc2)cc(C(=O)NCc2c(C)cc(C)[nH]c2=O)c1C)C1CCOCC1 [TAZEMETOSTAT]	0.014
c1coc(CNc2ncc(-c3ccc(CN4CCCC4)cc3)c3nncn23)c1	0.381
N#Cc1cc(-c2ccccc2F)c2nncn2c1NCc1ccco1	0.0281

* * *

Items are presented alongside their recorded fAUC/dose.
Tested on: Mus musculus
assay.explanation: Dose normalized unbound AUC in CD-1 mouse at 2 mg/kg, po by LC-MS/MS analysis
Format: ADME, organism-based
stated.conditions: in vivo

compound	test.system	fAUC/dose
CS(=O)(=O)c1ccc(-c2cnc(NCc3ccco3)n3cnnc23)cc1	Mus musculus	813 nM·h
c1coc(CNc2ncc(-c3ccc(CN4CCCC4)cc3)c3nncn23)c1	Mus musculus	202 nM·h
CCN(c1cc(-c2ccc(CN3CCOCC3)cc2)cc(C(=O)NCc2c(C)cc(C)[nH]c2=O)c1C)C1CCOCC1 [TAZEMETOSTAT]	Mus musculus	4 nM·h
N#Cc1cc(-c2ccccc2F)c2nncn2c1NCc1ccco1	Mus musculus	20.1 nM·h

* * *

assay.explanation: Plasma protein binding in Beagle dog assessed as unbound fraction
Assay type: ADME, cell-free, Canis lupus familiaris

smi	fraction unbound
CS(=O)(=O)c1ccc(-c2cnc(NCc3ccco3)n3cnnc23)cc1	0.24

* * *

assay.explanation: in vivo
stated.conditions: CD-1, mouse
Items are presented alongside their recorded half-life.

compound	half-life
CCN(c1cc(-c2ccc(CN3CCOCC3)cc2)cc(C(=O)NCc2c(C)cc(C)[nH]c2=O)c1C)C1CCOCC1 [TAZEMETOSTAT]	1.6 h
CS(=O)(=O)c1ccc(-c2cnc(NCc3ccco3)n3cnnc23)cc1	2.2 h
